target: T1, recombinant gp120 of HIV-1 strain IIIb (HIV-1 strain IIIb, UniProt P04578 33-511); experiment: SPR BIAcore, gp120 on chip;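 further: fab fragments flowed at 0.5 to 10 ug/ml over immobilized gp120, resonance units tracked during association and dissociation, equilibrium constants derived from the rate constants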
T1 construct: domain: gp120; also called IIIb-derived gp120; gp 120 (IIIB strain)
measured_endpoint: Ka (M⁻¹)
Unit M⁻¹ implied. Number only.

Prompt: # lookup: Ka of composite Fab H101/L42-16 (Fab, V domains shown) VH: LEQSGAEVKKPGASVKVSCQASGYRFSHFTVHWVRQAPGQRFEWHGWINPYNGNKEFSAKFQDRVTFTADTSANTAYMELRSLRSADTAVYYCARVGEWGWHQRRYDNYYMDVWGKGTTVIVSS VL: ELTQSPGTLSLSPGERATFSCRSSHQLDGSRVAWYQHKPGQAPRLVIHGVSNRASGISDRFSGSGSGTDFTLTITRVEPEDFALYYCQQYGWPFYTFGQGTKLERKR
Response: 5.81e+09

Prompt: # lookup: Ka of composite Fab H31/L42-1 (Fab, V domains shown, also called Fab of plasmid pPho-H31/L42-1 (ATCC 69691)) VH: LEQSGAEVKKPGASVKVSCQASGYRFSHFTVHWVRQAPGQRFEWHGWINPYNGNKEFSAKFQDRVTFTADTSANTAYMELRSLRSADTAVYYCARVGEWGWEMFRYDNYYMDVWGKGTTVIVSS VL: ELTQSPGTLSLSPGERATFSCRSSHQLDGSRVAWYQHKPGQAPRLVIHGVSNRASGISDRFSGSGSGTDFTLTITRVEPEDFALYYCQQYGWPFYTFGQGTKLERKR
Response: 3.85e+11

Prompt: # lookup: Ka of composite Fab H103/L42-4 (Fab, V domains shown) VH: LEQSGAEVKKPGASVKVSCQASGYRFSHFTLHWVRQAPGQRFEWHGWINPYNGNKEFSAKFQDRVTFTADTSANTAYMELRSLRSADTAVYYCARVGEWGWHQRRYDNYYMDVWGKGTTVIVSS VL: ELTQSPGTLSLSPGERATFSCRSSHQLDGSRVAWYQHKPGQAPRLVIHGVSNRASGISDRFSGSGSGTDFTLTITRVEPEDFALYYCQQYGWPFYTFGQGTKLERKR
Response: 8.88e+09
